Target: Glucocorticoid receptor (Homo sapiens, UniProt P04150); also: assay procedure not described here
Sequence (P04150 whole entry): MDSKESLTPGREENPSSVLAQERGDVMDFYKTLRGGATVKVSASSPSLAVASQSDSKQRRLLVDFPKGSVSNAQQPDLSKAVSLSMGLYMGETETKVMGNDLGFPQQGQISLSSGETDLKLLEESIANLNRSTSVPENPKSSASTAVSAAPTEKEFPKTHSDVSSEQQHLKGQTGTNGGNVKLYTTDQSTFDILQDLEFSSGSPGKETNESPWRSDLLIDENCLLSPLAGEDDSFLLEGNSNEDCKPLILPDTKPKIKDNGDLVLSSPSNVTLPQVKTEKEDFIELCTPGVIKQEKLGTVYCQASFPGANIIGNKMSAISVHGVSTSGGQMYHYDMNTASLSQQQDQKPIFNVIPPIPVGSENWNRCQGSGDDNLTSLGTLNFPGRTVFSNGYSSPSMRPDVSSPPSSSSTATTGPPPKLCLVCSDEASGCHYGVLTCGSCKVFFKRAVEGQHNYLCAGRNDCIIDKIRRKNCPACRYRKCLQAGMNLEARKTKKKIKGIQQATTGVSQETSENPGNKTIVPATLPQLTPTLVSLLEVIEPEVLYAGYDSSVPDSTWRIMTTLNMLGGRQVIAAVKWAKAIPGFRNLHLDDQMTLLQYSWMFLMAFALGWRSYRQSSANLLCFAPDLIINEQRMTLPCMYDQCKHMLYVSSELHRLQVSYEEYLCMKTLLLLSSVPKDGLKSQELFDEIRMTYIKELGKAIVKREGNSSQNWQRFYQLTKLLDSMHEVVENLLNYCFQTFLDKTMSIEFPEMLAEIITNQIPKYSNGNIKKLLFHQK
Reported endpoint: AC50

Use these answered entries as a reference point.
{"Molecule": "O=c1[nH]cc(F)c(=O)[nH]1 [FLUOROURACIL]", "Assayed system": "Glucocorticoid receptor (Homo sapiens, UniProt P04150)", "AC50": "> 30 µM"}
{"Molecule": "CN1CCCN=C1/C=C/c1cccc(O)c1 [OXANTEL]", "Assayed system": "Glucocorticoid receptor (Homo sapiens, UniProt P04150)", "AC50": "> 30 µM"}
{"Molecule": "CN(C)CCOCC(=O)NC12CC3CC(CC(C3)C1)C2 [TROMANTADINE]", "Assayed system": "Glucocorticoid receptor (Homo sapiens, UniProt P04150)", "AC50": "> 30 µM"}

### Prompt So what does the record say about AC50 for C[C@H](Cn1cnc2c(N)ncnc21)OCP(=O)(O)O [TENOFOVIR ANHYDROUS] ?
### Response > 30 µM

### Prompt So what does the record say about AC50 for CC(=O)Oc1ccccc1C(=O)O [ASPIRIN] ?
### Response > 30 µM

### Prompt So what does the record say about AC50 for CNC1(C)C2CCC(C2)C1(C)C (stereo unspecified) [MECAMYLAMINE] ?
### Response > 10 µM

###

Target: UniProt:P30518
Sequence (P30518 whole entry): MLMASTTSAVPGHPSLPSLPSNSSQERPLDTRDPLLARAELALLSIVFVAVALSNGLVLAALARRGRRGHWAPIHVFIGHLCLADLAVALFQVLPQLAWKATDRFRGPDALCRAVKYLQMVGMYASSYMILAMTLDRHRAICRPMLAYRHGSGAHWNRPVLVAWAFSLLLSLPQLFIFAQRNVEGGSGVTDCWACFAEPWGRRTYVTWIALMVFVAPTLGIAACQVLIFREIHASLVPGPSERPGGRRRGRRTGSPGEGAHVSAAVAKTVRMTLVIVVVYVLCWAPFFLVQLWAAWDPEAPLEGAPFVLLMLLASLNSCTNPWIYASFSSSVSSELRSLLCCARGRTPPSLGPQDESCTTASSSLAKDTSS
Reported endpoint: AC50

Use these answered entries as a reference point.
{"Compound": "CC(=O)SCC(Cc1ccccc1)C(=O)NCC(=O)OCc1ccccc1 (stereo not given) [RACECADOTRIL]", "AC50": "> 30 µM"}
{"Compound": "Nc1nnc(-c2cccc(Cl)c2Cl)c(N)n1 [LAMOTRIGINE]", "AC50": "> 30 µM"}
{"Compound": "CC(C)C[C@H](NC(=O)[C@H](Cc1ccccc1)NC(=O)c1cnccn1)B(O)O [BORTEZOMIB]", "AC50": "> 30 µM"}

### Prompt Missing value: AC50, UniProt:P30518, entry O=C(O)c1nn(Cc2ccc(Cl)cc2Cl)c2ccccc12 [LONIDAMINE] . Fill in?
### Response > 30 µM

### Prompt Missing value: AC50, UniProt:P30518, entry NCCCCCC(=O)O [AMINOCAPROIC ACID] . Fill in?
### Response > 10 µM

### Prompt Missing value: AC50, UniProt:P30518, entry CN1C2CCCC1CC(NC(=O)c1nn(C)c3ccccc13)C2 (stereo not given) [GRANISETRON] . Fill in?
### Response > 30 µM

### Prompt Missing value: AC50, UniProt:P30518, entry NCC1(CC(=O)O)CCCCC1 [GABAPENTIN] . Fill in?
### Response > 30 µM

### Prompt Missing value: AC50, UniProt:P30518, entry N=C(N)NC(=O)c1nc(Cl)c(N)nc1N [AMILORIDE] . Fill in?
### Response > 30 µM

### Prompt Missing value: AC50, UniProt:P30518, entry CN1C(=O)CN=C(c2ccccc2F)c2cc([N+](=O)[O-])ccc21 [FLUNITRAZEPAM] . Fill in?
### Response > 30 µM

### Prompt Missing value: AC50, UniProt:P30518, entry CC1Cc2ccccc2N1NC(=O)c1ccc(Cl)c(S(N)(=O)=O)c1 (stereo not given) [INDAPAMIDE] . Fill in?
### Response > 30 µM

### Prompt Missing value: AC50, UniProt:P30518, entry O=C(c1ccccc1)c1ccc2n1CCC2C(=O)O (stereo not given) [KETOROLAC] . Fill in?
### Response > 10 µM

### Prompt Missing value: AC50, UniProt:P30518, entry CN(C)CCN(Cc1ccccc1)c1ccccn1 [TRIPELENNAMINE] . Fill in?
### Response > 10 µM

### Prompt Missing value: AC50, UniProt:P30518, entry CN1CCC(=C2c3ccccc3CC(=O)c3sccc32)CC1 [KETOTIFEN] . Fill in?
### Response > 10 µM

### Prompt Missing value: AC50, UniProt:P30518, entry COc1ccc(-n2nc(C(N)=O)c3c2C(=O)N(c2ccc(N4CCCCC4=O)cc2)CC3)cc1 [APIXABAN] . Fill in?
### Response > 30 µM

### Prompt Missing value: AC50, UniProt:P30518, entry CO/N=C(\C(=O)N[C@@H]1C(=O)N2C(C(=O)[O-])=C(C[n+]3ccc(N)n3CCO)CS[C@H]12)c1csc(N)n1 [CEFOSELIS] . Fill in?
### Response > 30 µM

###

Target: UniProt P35348
Sequence (P35348 whole entry): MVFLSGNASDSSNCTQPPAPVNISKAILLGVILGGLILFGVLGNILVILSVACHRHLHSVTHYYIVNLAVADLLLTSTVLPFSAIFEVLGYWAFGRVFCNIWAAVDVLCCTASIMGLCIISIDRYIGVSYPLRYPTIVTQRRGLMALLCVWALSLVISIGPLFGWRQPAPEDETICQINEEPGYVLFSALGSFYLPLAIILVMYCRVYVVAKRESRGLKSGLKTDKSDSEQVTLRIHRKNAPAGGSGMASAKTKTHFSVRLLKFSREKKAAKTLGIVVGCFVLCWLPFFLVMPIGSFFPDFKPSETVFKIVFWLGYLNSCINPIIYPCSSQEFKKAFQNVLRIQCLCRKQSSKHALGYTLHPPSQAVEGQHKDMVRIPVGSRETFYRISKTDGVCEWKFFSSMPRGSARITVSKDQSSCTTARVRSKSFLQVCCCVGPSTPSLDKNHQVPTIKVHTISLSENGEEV
Assay type: functional, cell-based
Listing of recorded AC50 by entry.

### Prompt Missing value: AC50, UniProt P35348, entry CC1=C(/C=C/C(C)=C\C=C\C(C)=C\C(=O)O)C(C)(C)CCC1 . Fill in?
### Response > 30 µM

### Prompt Missing value: AC50, UniProt P35348, entry CC1(C)CCC(C)(C)c2cc(NC(=O)c3ccc(C(=O)O)cc3)ccc21 . Fill in?
### Response > 10 µM

### Prompt Missing value: AC50, UniProt P35348, entry Cc1cnc(C(=O)O)c[n+]1[O-] . Fill in?
### Response > 30 µM

### Prompt Missing value: AC50, UniProt P35348, entry Nc1ccn(C[C@@H](CO)OCP(=O)(O)O)c(=O)n1 . Fill in?
### Response > 30 µM

### Prompt Missing value: AC50, UniProt P35348, entry NC(=O)N/N=C/c1ccc([N+](=O)[O-])o1 . Fill in?
### Response > 30 µM

### Prompt Missing value: AC50, UniProt P35348, entry CCOC1O[C@H]([C@@H](COCc2ccccc2)OCc2ccccc2)[C@H](OCc2ccccc2)[C@H]1O (stereo not given in full) [TRIBENOSIDE] . Fill in?
### Response 15.2 µM

### Prompt Missing value: AC50, UniProt P35348, entry Cc1c(C(C)C)c(=O)n(-c2ccccc2)n1C . Fill in?
### Response > 30 µM

### Prompt Missing value: AC50, UniProt P35348, entry O=c1[nH]cc(F)c(=O)[nH]1 . Fill in?
### Response > 30 µM

### Prompt Missing value: AC50, UniProt P35348, entry Cc1ccc(C(C)C)c(O)c1 . Fill in?
### Response 25.8 µM

### Prompt Missing value: AC50, UniProt P35348, entry CC(=O)Oc1ccccc1C(=O)O . Fill in?
### Response > 30 µM

###

Target: UniProtKB P06401
Sequence (P06401 whole entry): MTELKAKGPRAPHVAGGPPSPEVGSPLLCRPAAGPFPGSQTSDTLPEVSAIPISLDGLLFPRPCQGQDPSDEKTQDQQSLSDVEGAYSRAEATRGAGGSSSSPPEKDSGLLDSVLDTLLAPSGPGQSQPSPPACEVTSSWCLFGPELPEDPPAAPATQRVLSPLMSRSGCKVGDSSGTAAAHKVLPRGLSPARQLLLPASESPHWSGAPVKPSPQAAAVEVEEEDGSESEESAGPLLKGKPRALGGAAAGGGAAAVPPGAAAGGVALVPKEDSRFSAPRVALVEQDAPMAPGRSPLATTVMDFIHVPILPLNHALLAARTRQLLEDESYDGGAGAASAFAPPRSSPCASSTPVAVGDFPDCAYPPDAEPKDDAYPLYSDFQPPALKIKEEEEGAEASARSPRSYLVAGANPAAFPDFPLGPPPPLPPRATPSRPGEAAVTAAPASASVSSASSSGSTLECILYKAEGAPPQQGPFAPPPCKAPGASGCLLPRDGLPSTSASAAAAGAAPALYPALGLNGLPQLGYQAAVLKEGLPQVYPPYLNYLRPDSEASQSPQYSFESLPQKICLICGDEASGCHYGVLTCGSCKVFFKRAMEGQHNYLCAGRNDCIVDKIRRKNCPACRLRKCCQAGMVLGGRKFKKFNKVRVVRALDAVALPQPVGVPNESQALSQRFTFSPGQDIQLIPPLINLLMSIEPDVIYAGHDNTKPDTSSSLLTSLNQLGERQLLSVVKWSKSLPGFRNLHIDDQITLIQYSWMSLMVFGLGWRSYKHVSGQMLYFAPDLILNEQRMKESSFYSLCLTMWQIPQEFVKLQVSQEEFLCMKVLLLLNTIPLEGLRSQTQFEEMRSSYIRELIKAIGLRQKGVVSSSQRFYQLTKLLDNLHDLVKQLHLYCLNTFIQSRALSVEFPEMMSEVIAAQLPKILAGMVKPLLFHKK
Type: functional
Listing of recorded AC50 by entry.

Use these answered entries as a reference point.
{"Compound": "CO[C@@H]1[C@@H](OC(N)=O)[C@@H](O)[C@H](Oc2ccc3c(O)c(NC(=O)c4ccc(O)c(CC=C(C)C)c4)c(=O)oc3c2C)OC1(C)C", "Measured": "> 30 µM"}
{"Compound": "CC(C)CN(C[C@@H](O)[C@H](Cc1ccccc1)NC(=O)O[C@H]1CCOC1)S(=O)(=O)c1ccc(N)cc1", "Measured": "> 10 µM"}
{"Compound": "CC(=O)NC[C@H]1CN(c2ccc(N3CCOCC3)c(F)c2)C(=O)O1", "Measured": "> 30 µM"}
{"Compound": "CCN(CC)CCCN(c1ccccc1)C1Cc2ccccc2C1", "Measured": "> 30 µM"}
{"Compound": "CN(C)CCC(O)(c1ccccc1)c1ccccc1Cl (stereo not given)", "Measured": "> 10 µM"}
{"Compound": "CC(C)(Oc1ccc(Cl)cc1)C(=O)OCCOC(=O)c1cccnc1 [ETOFIBRATE]", "Measured": "> 30 µM"}
{"Compound": "O=C(c1ccccc1)c1ccc2n1CCC2C(=O)O (stereo not given)", "Measured": "> 10 µM"}
{"Compound": "CCN(CCO)CCCC(C)Nc1ccnc2cc(Cl)ccc12 (stereo not given) [HYDROXYCHLOROQUINE]", "Measured": "> 10 µM"}

### Prompt So what does the record say about AC50 for COc1cc2c(cc1OC)C1CC(=O)C(CC(C)C)CN1CC2 (stereo not given) ?
### Response > 30 µM

### Prompt So what does the record say about AC50 for C[C@H](Cn1cnc2c(N)ncnc21)OCP(=O)(O)O [TENOFOVIR ANHYDROUS] ?
### Response > 30 µM
